# STUDY SYSTEM: Bombyx mori EcR (VP16 fusion, CVBE switch construct) (Bombyx mori)
# Sequence (P49881 86-606): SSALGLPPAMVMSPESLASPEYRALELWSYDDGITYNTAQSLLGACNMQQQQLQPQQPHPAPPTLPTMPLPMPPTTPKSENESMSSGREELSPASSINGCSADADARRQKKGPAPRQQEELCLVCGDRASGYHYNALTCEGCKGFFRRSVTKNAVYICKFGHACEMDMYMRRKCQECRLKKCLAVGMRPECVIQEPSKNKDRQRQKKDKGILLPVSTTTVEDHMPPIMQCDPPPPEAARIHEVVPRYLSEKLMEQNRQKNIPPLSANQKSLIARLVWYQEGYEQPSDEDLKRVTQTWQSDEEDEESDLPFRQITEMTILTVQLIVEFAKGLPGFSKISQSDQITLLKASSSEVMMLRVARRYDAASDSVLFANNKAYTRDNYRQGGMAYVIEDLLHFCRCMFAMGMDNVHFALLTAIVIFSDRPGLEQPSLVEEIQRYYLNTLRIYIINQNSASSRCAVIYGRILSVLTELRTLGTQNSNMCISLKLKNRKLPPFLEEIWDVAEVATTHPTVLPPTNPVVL
# Sequence (P19793 whole entry partner, the tested form may be a part): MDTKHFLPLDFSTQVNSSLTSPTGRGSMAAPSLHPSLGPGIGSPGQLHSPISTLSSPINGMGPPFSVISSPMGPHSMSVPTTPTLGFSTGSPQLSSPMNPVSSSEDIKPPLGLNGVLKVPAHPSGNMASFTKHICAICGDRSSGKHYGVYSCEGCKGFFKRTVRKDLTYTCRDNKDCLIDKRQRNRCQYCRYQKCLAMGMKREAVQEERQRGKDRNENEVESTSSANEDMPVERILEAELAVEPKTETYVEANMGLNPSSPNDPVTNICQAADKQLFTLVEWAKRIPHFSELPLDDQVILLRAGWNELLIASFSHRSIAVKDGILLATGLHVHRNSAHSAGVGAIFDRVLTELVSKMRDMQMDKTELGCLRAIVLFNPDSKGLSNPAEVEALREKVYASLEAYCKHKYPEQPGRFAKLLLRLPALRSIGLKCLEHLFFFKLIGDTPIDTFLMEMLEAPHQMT
# METHOD NOTES: Z3 Assay (HEK-293 cells with CVBE and 6XEcRE LacZ, β-galactosidase reporter)
# STUDY CONDITIONS: maximum fold induction at any concentration relative to that of GS-E ligand; HEK-293 Z3 cells
Catalogue of Z3 assay Rel Max FI values
Respond using a number only.

Look over these answered cases.
| MOLECULE | READOUT TYPE | TEST RESULT |
| --- | --- | --- |
| COc1cccc(C(=O)NN(C(=O)c2cc(C)cc(C)c2)C(C)(C)C)c1N | Z3 assay Rel Max FI | 0.947 |
| CCc1ccc(C(=O)NN(C(=O)c2cccc(OC)c2)C(C)(C)C)c(F)c1 | Z3 assay Rel Max FI | 0.552 |
| CCc1c(C(=O)NN(C(=O)c2cccc(C)c2)C(C)(C)C)ccc2c1OCCO2 | Z3 assay Rel Max FI | 1.049 |
| CCc1c(OC)cccc1C(=O)NN(C(=O)c1cc(OC)cc(OC)c1)C(C)(C)C | Z3 assay Rel Max FI | 1.000 |
| CCc1c(C(=O)NN(C(=O)c2cc(C)cc(Cl)c2)C(C)(C)C)ccc2c1OCCO2 | Z3 assay Rel Max FI | 1.093 |
| CCc1c(OC)cccc1C(=O)NN(C(=O)c1cc(C)cc(C)c1)C(CC)C(C)(C)C (centres unmarked) | Z3 assay Rel Max FI | 1.002 |
| CCc1c(C(=O)NN(C(=O)c2ccc(Cl)cc2F)C(C)(C)C)ccc2c1OCCO2 | Z3 assay Rel Max FI | 0.970 |
| CNCc1c(OC)cccc1C(=O)NN(C(=O)c1cc(C)cc(C)c1)C(C)(C)C | Z3 assay Rel Max FI | 0.02 |

Give Bombyx mori EcR (VP16 fusion, CVBE switch construct) (Bombyx mori) Z3 assay Rel Max FI for `CCc1c(OC)cccc1C(=O)NN(C(=O)c1ccc(Cl)cc1OC)C(C)(C)C`
0.998

I'm curious: which Z3 assay Rel Max FI was measured for `Cc1cc(C)cc(C(=O)N(NC(=O)c2ccc3c(c2)CCCC3)C(C)(C)C)c1` tested on Bombyx mori EcR (VP16 fusion, CVBE switch construct) (Bombyx mori)?
0.930

Which measured Z3 assay Rel Max FI belongs to `CCc1c(OC)cccc1C(=O)NN(C(=O)c1cc(Cl)ccc1[N+](=O)[O-])C(C)(C)C` , tested on Bombyx mori EcR (VP16 fusion, CVBE switch construct) (Bombyx mori)?
0.885

Checklist item: Z3 assay Rel Max FI tested on Bombyx mori EcR (VP16 fusion, CVBE switch construct) (Bombyx mori), entry `COc1cc(C(=O)N(NC(=O)c2ccc3c(c2C)OCCO3)C(C)(C)C)cc(OC)c1C` , value?
0.947

Reported Z3 assay Rel Max FI for Bombyx mori EcR (VP16 fusion, CVBE switch construct) (Bombyx mori), given `COc1ccc(C)cc1C(=O)N(NC(=O)c1cccc(OC)c1C)C(C)(C)C` ?
1.194
